- measurement_target: MC4 receptor (MC4R) (Homo sapiens)
- Construct: expressed in transfected cells; host or cells: CHO-CRE MC4R cells (membranes)
- Sequence (P32245 whole entry): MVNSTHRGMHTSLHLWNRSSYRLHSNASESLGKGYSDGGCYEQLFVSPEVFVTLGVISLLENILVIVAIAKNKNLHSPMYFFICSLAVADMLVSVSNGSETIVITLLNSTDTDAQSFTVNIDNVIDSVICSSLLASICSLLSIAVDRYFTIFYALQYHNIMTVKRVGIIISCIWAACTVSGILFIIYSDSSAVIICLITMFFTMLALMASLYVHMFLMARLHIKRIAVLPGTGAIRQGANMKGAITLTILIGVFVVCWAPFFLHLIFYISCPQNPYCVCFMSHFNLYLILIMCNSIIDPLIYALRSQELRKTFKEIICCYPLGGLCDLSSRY
- method_notes: AGRP inhibition: competition binding vs [125I]AGRP(87-132) at CHO-CRE MC4R cell membranes
- assay_conditions: vs 0.3 nM [125I]AGRP(87-132)
- Method: Agouti related protein (AGRP) is a high affinity endogenous antagonist/inverse agonist for the MC4 receptor (Lu et al., 1994, Nature 371: 799-802; Oilman et al., 1997, Science 278: 135-138). […] Non-specific binding was determined by the inclusion of 1 μM SHU9119. […] The filters were soaked in 50 μl scintillation fluid and the amount of radioactivity present was determined by liquid scintillation counting. Ki values were determined by data analysis using appropriate software.
endpoint_label: Ki (nM)

C[C@@H]1CN(C(=O)[C@@H]2CN(c3ccc(=O)n(C)n3)C[C@H]2c2ccc(Cl)cn2)C[C@H](C)[C@@]1(O)C1CC1 = 965
C[C@@H]1CN(C(=O)[C@@H]2CN(c3cncc(F)c3)C[C@H]2c2ccc(Cl)cn2)C[C@H](C)[C@@]1(O)c1ccccn1 = 643
C[C@@H]1CN(C(=O)[C@@H]2CN(c3ccc(=O)[nH]n3)C[C@H]2c2ccc(Cl)cn2)C[C@H](C)[C@@]1(O)c1ccccn1 = 516
C[C@@H]1CN(C(=O)[C@@H]2CN(c3ccc(=O)[nH]n3)C[C@H]2c2ccc(F)cn2)C[C@H](C)[C@@]1(O)c1ccc(Cl)cc1 = 456
C[C@@H]1CN(C(=O)[C@@H]2CN(c3ccc(=O)[nH]n3)C[C@H]2c2ccc(F)cn2)C[C@H](C)[C@@]1(O)c1ccc(F)cc1 = 336
C[C@@H]1CN(C(=O)[C@@H]2CN(c3ccc(Cl)nn3)C[C@H]2c2ccc(F)cn2)C[C@H](C)[C@@]1(O)c1ccccc1 = 386
CC1CN(C(=O)C2CN(c3ccc(=O)n(C)n3)CC2c2ccc(F)cn2)CC(C)C1(O)c1ccccc1 (centres unmarked) = 751
C[C@@H]1CN(C(=O)[C@@H]2CN(c3ccc(C#N)nn3)C[C@H]2c2ccc(Cl)cn2)C[C@H](C)[C@@]1(O)c1ccccc1 = 40
C[C@@H]1CN(C(=O)[C@@H]2CN(c3ccc(C#N)nn3)C[C@H]2c2ccc(Cl)cn2)C[C@H](C)[C@@]1(O)c1ccc(F)cc1 = 59
COc1ccc([C@@H]2CN(c3cncc(F)c3)C[C@H]2C(=O)N2C[C@@H](C)[C@](O)(c3ccc(F)cc3)[C@@H](C)C2)cn1 = 106
C[C@@H]1CN(C(=O)[C@@H]2CN(c3ccc(C#N)nn3)C[C@H]2c2ccc(F)cn2)C[C@H](C)[C@@]1(O)c1ccc(Cl)cc1 = 160
CC1CN(C(=O)C2CN(c3cncc(F)c3)CC2c2ccc(Cl)cn2)CC(C)C1(O)c1ccc(F)cc1 (centres unmarked) = 278
COc1ccc(C2(O)C(C)CN(C(=O)C3CN(c4ccc(=O)n(C)n4)CC3c3ccc(Cl)cn3)CC2C)cc1 (centres unmarked) = 253
COc1ccc([C@@H]2CN(c3ccc(=O)[nH]n3)C[C@H]2C(=O)N2C[C@@H](C)[C@](O)(c3ccc(Cl)cn3)[C@@H](C)C2)nc1 = 3750
COc1ccc(C2CN(c3ccc(=O)[nH]n3)CC2C(=O)N2CC(C)C(O)(c3ccc(F)cc3)C(C)C2)nc1 (centres unmarked) = 888
C[C@@H]1CN(C(=O)[C@@H]2CN(c3ccc(Cl)nn3)C[C@H]2c2ccc(F)cn2)C[C@H](C)[C@@]1(O)c1ccc(F)cc1 = 1020
COc1ccc([C@@H]2CN(c3cccnn3)C[C@H]2C(=O)N2C[C@@H](C)[C@](O)(c3ccc(F)cc3)[C@@H](C)C2)cn1 = 417
C[C@@H]1CN(C(=O)[C@@H]2CN(c3ccc(C#N)nn3)C[C@H]2c2ccc(C#N)cn2)C[C@H](C)[C@@]1(O)c1ccc(F)cc1 = 134
C[C@@H]1CN(C(=O)[C@@H]2CN(c3ccc(Cl)nn3)C[C@H]2c2ccc(Cl)cn2)C[C@H](C)[C@@]1(O)c1ccccn1 = 526
CC1CN(C(=O)C2CN(c3ccc(=O)n(C)n3)CC2c2ccc(Cl)cn2)CC(C)C1(O)c1ccccc1 (centres unmarked) = 66
C[C@@H]1CN(C(=O)[C@@H]2CN(c3ccc(=O)n(C)n3)C[C@H]2c2ccc(Cl)cn2)C[C@H](C)[C@@]1(O)c1ccccn1 = 5960
C[C@@H]1CN(C(=O)[C@@H]2CN(c3ccc(C#N)nn3)C[C@H]2c2ccc(F)cn2)C[C@H](C)[C@@]1(O)c1ccc(F)cc1 = 375
CC1CN(C(=O)C2CN(c3ccc(=O)[nH]n3)CC2c2ccc(Cl)cn2)CC(C)C1(O)c1ccccc1 (centres unmarked) = 100
C[C@@H]1CN(C(=O)[C@@H]2CN(c3ccc(=O)n(C)n3)C[C@H]2c2ccc(Cl)cn2)C[C@H](C)[C@@]1(O)C1CCCCC1 = 20
C[C@@H]1CN(C(=O)[C@@H]2CN(c3ccc(=O)n(C)n3)C[C@H]2c2ccc(F)cn2)C[C@H](C)[C@@]1(O)c1ccc(Cl)cc1 = 714

Origin of values: patent US8138188B2
